Measured values drawn from the RNAGym collection of RNA variant scans (doi:10.1073/pnas.2313332121) for this set.

B1: TPR t1 (parent)
chain: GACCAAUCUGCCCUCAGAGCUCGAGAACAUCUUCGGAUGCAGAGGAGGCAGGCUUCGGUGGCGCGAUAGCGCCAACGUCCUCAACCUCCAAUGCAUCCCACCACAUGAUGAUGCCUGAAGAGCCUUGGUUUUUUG

- Variants of: B1
- assay procedure: polymerase ribozyme fitness, log enrichment relative to wild type (log ratio); higher = more active; in vitro selection for triplet polymerase activity
Below, each entry is listed with its recorded polymerase ribozyme fitness (log ratio).
measured attribute: polymerase ribozyme fitness (log ratio)

alteration: C8G C20U A46U G52C
measured attribute: polymerase ribozyme fitness (log ratio)
observed result: -3.42
--
alteration: G39A A95G C115A
measured attribute: polymerase ribozyme fitness (log ratio)
observed result: -0.556
--
alteration: A43C C49U G63U A66C
measured attribute: polymerase ribozyme fitness (log ratio)
observed result: -5.38
--
alteration: A43G G44U A46U
measured attribute: polymerase ribozyme fitness (log ratio)
observed result: -2.25
--
alteration: C11U C15A G39C G61C C114A
measured attribute: polymerase ribozyme fitness (log ratio)
observed result: -5.39
--
alteration: C40G G51A C56A C72A A121U
measured attribute: polymerase ribozyme fitness (log ratio)
observed result: -3.83
--
alteration: C13U C40U A43U C72G A84G C89G
measured attribute: polymerase ribozyme fitness (log ratio)
observed result: -6.24
--
alteration: C8A A83C A100C
measured attribute: polymerase ribozyme fitness (log ratio)
observed result: -0.702
--
alteration: G45A G63C
measured attribute: polymerase ribozyme fitness (log ratio)
observed result: -0.827
--
alteration: C72A U78A
measured attribute: polymerase ribozyme fitness (log ratio)
observed result: 0.142
--
alteration: U21A A41C A90C G93A
measured attribute: polymerase ribozyme fitness (log ratio)
observed result: -4.16
--
alteration: G39C G63C
measured attribute: polymerase ribozyme fitness (log ratio)
observed result: -1.54
--
alteration: A2U U54C C115A
measured attribute: polymerase ribozyme fitness (log ratio)
observed result: -2.65
